Data origin: ChEMBL document CHEMBL4513216

Field: cytotoxicity at 10 µM. Provide a value for each of the molecules that follow.
- ASSAY METHOD TEXT: Toxicity liver stage against HepG2, at 10uM
- Assay type: cell-based
- Design: test concentration 10 uM, cell line HepG2-A16-CD81EGFP
- SETTINGS: human, HepG2-A16-CD81EGFP cells; read-out: INHIBITION
A number alone suffices; assume %.

The reported value for O=C(C1CCOC1)N1CCN(Cc2cccnc2)c2ncccc2C1 (centres undefined) in terms of cytotoxicity at 10 µM is 3.07

Per the record, CN(C)CCNC(=O)c1cc2n(n1)CCN(C(=O)c1ccco1)C2 has cytotoxicity at 10 µM of 2.52

Summary for this molecule, Cc1noc(C)c1CNC(=O)N(C1CC1)C(C)c1ccco1 (centres undefined) : cytotoxicity at 10 µM is 5.68

Entry Cc1ccc(CN2C[C@@H]3CCCO[C@@H]3[C@H](N(C)Cc3ccco3)C2)o1 — recorded cytotoxicity at 10 µM = 6.43

Record O=C(NCC(=O)N1CCc2ccccc2C1)c1cnccn1 , field cytotoxicity at 10 µM: -4.81

response.value for N#CCC(=O)NCc1nnc2n1CCN(Cc1nccs1)C2 (field: cytotoxicity at 10 µM) = -149

Please fill in: cytotoxicity at 10 µM reported for CCn1c(CN2CCN(C(=O)C3CCC3)CC2)nc2c(F)cccc21 = -3.78

// Cc1nc(CN2C[C@@H]3CN(C(=O)c4cnccn4)C[C@@H]3C2=O)cs1 : cytotoxicity at 10 µM value = -74.5

Briefly, cytotoxicity at 10 µM measured for COCCN1CCC(NCc2ccc(F)cc2F)C1 (centres undefined) : -2.67

The recorded cytotoxicity at 10 µM for entry COCC1(C(=O)N2CCC(c3nccn3CC3CC3)CC2)CCC1 equals 4.5

Quick note, cytotoxicity at 10 µM for Cc1cnn(CC2CCCCN2Cc2nc(C)c3ccccc3n2)c1 (centres undefined) landed at -8.54

The molecule identified as O=C(Nc1ccccc1F)NC1(CO)CCOCC1 registered its cytotoxicity at 10 µM at -46.4

cytotoxicity at 10 µM measured on c1ccc2oc(CCCN3CCOC(Cn4cncn4)C3)nc2c1 (centres undefined) = 1.52

# cytotoxicity at 10 µM of CC(=O)c1c(C)nn(CC(=O)N2CCCC2c2ccc(C(N)=O)s2)c1C (centres undefined) = 1.16

Notebook: CSc1ccc(NC(=O)NCC(O)C(C)C)cc1F (centres undefined) , cytotoxicity at 10 µM read as 6.93

molecule Cc1cc(NC2CCN(CC3CCCO3)CC2)n2nc(C)c(C)c2n1 (centres undefined) , cytotoxicity at 10 µM observed: 8.96

Lookup result for CCOCCN1CCN(CC2(O)CCCCC2)CC1 ; measured cytotoxicity at 10 µM: 1.34

The recorded cytotoxicity at 10 µM for entry CC(=O)N1CCc2[nH]cnc2C12CCN(C(=O)Cc1ccccn1)CC2 equals 1.76

// Oc1nc(-c2cnccn2)nc2c1CCN(Cc1ccccn1)C2 : cytotoxicity at 10 µM value = 1.51

Reported cytotoxicity at 10 µM for CCN(CC)Cc1ccc(C(=O)N2CCCC2Cn2cccn2)o1 (centres undefined) was -10.5

Given item Cc1ccc2[nH]c(C(=O)NCCCn3ccnn3)c(C)c2c1 , the value recorded as its cytotoxicity at 10 µM is 5.36

Item: O=C(Nc1cccc(OCc2cccc(F)c2)c1)C1COCCO1 (centres undefined) | cytotoxicity at 10 µM: 8.06

The molecule listed as COCCn1ccc(NC(=O)Nc2ccccc2)n1 has a reported cytotoxicity at 10 µM of -0.0425

Looking up CN1CC[C@]2(CN(S(C)(=O)=O)C[C@H]2c2ccccc2)C1=O , I found its cytotoxicity at 10 µM recorded as -120
